assay-target: T1, FLrArc-7A, full-length rat Arc with residues 113-119 mutated to Ala (rat, UniProt Q63053 1-396, 113-119 MHVWREV to poly-Ala)
T1 construct: Expressed from pHMGWA as His6-MBP fusion; Dimer by SAXS; also called poly-Ala rArc mutant; FLArc-7A; source: E. coli BL21(DE3)-RIPL, purified (details in S1 Protocol)
T1 sequence (looked up): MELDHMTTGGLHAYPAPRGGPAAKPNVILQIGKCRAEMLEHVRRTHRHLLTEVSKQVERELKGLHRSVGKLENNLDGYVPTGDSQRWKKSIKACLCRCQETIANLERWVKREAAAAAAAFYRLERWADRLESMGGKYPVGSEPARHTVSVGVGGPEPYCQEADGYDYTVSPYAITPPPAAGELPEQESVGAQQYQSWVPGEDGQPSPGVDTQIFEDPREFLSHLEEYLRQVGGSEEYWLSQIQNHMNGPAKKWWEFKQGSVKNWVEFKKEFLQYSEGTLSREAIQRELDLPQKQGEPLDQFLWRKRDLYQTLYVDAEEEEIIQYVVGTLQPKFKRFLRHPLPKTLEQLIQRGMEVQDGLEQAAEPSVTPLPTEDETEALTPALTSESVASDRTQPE
assay-overview: ITC; 2 mM Stg peptide injected into 198 μM FLrArc-7A; 20 mM Tris-HCl pH 7.4, 150 mM NaCl; 1:1 binding model
condition-parameters: both partners purified
pKd: −log10 of the molar value.
observed-property: pKd

- Ac-RIPSYRYR-NH2 (peptide from the cytosolic tail of stargazin (Stg), auxiliary subunit of AMPA receptors) [stargazin (Stg) peptide]: 4.46
